Below, each of the molecules is paired with its reported melting point value.

{"MOLECULE": "CCCCc1ccc(N(c2nc(N[C@H]3CCCC[C@H]3C(N)=O)nc3c2ncn3CC)S(N)(=O)=O)cc1 (relative stereo)", "melting point": "220 °C"}
{"MOLECULE": "CCn1cnc2c(Nc3cccc(C(=O)NCc4ccc(F)cc4)c3)nc(N[C@H]3CC[C@H](O)CC3)nc21", "melting point": "165 to 167 °C"}
{"MOLECULE": "CCn1cnc2c(Nc3cccc(NC(=O)C#Cc4cccc(C)n4)c3)nc(NC3CCC(O)CC3)nc21 (stereo not drawn)", "melting point": "149 to 156 °C"}
{"MOLECULE": "CC(C)n1cnc2c(Nc3cccc(NC(=O)C#Cc4ccccc4)c3)nc(NC3CCC(O)CC3)nc21 (stereo not drawn)", "melting point": "162 to 164 °C"}

The reported value for CCn1cnc2c(Nc3cccc(NC(=O)C#Cc4cccc(C)c4)c3)nc(NC3CCC(O)CC3)nc21 (stereo not drawn) in terms of melting point is 164 to 171 °C

// melting point value for Cc1ccc(C#CC(=O)Nc2cccc(Nc3nc(NC4CCC(O)CC4)nc4c3ncn4C(C)C)c2)cc1 (stereo not drawn) : 152 to 154 °C

So, CCn1cnc2c(Nc3ccc(NC(=O)OCC(C)C)cc3)nc(N[C@H]3CC[C@H](O)CC3)nc21 ? Its melting point was 121 to 125 °C

Kindly note the recorded melting point for CCn1cnc2c(Nc3cccc(NC(=O)C#Cc4cccs4)c3)nc(N[C@H]3CC[C@H](O)CC3)nc21 , which is 158 to 161 °C

Documented melting point of CCn1cnc2c(Nc3cccc(NC(=O)C#Cc4ccc(Cl)cc4)c3)nc(N[C@H]3CC[C@H](O)CC3)nc21 : 148 to 150 °C

All values here come from patent US6767906B2.
